- Measurement target: cyno ST2L (cyno)
- Method description: affinity table; method not stated
Recorded metric: kon (M⁻¹ s⁻¹)
Answers are plain numbers, in M⁻¹ s⁻¹.

Some solved entries appear below for comparison.
# Binder, Recorded metric, Result
rows = [
    ("STLM230 (antibody, from another filing, V domains shown) VH: EVQLVQSGAEVKKPGATVKISCKVSAFNIKDDYMHWVQQAPGKGLEWMGRIDPAIGNTEYAEKFQGRVTITADTSTDTAYMELSSLRSEDTAVYYCATGDFYAMAYWGQGTLVTVSS VL: DIQMTQSPSSLSASVGDRVTITCITNTDIDDVIHWYQQKPGKAPKLLIYEGNTLRPGVPSRFSGSGSGTDFTLTISSLQPEDFATYYCLQSDNMLTFGQGTKLEIK", "kon", "5.06e+07"),
    ("STLM124 (antibody, from another filing, V domains shown) VH: EVQLLESGGGLVQPGGSLRLSCAASGFTFSIYDMIWVRQAPGKGLEWVSTIKGEGGGTYYADSVKGRFTISRDNSKNTLYLQMNSLRAEDTAVYYCARDPWSTEGSFFVLDYWGQGTLVTVSS VL: EIVLTQSPATLSLSPGERATLSCRASQSVDDDLAWYQQKPGQAPRLLIYDASNRATGIPARFSGSGSGTDFTLTISSLEPEDFAVYYCQQYITAPLTFGQGTKVEIK", "kon", "8.71e+07"),
    ("STLM216 (antibody, from another filing, V domains shown) VH: EVQLLESGGGLVQPGGSLRLSCAASGFTFSSYDMFWVRQAPGKGLEWVSDIKGEGGATNYADSVKGRFTISRDNSKNTLYLQMNSLRAEDTAVYYCARDPWSTEGSFFVLDYWGQGTLVTVSS VL: EIVLTQSPATLSLSPGERATLSCRASQSVDDDLAWYQQKPGQAPRLLIYDASNRATGIPARFSGSGSGTDFTLTISSLEPEDFAVYYCQQYIGAPITFGQGTKVEIK", "kon", "7.89e+07"),
    ("STLM227 (antibody, from another filing, V domains shown) VH: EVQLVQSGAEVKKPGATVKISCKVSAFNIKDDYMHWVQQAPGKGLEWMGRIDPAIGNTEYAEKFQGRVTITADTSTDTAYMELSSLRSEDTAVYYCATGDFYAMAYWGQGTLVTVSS VL: DIQLTQSPSFLSASVGDRVTITCITNTDIDDVIHWYQQKPGKAPKLLIYEGNTLRPGVPSRFSGSGSGTEFTLTISSLQPEDFATYYCLQSDNMLTFGQGTKLEIK", "kon", "1e+08"),
    ("STLM232 (antibody, from another filing, V domains shown) VH: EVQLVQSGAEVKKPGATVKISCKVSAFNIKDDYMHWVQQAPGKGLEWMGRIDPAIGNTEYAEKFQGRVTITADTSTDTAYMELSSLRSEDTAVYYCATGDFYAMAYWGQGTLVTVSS VL: DIQMTQSPSSLSASVGDRVTITCITNTDIDDVIHWYQQKPGKAPKLLIYEGNTLRPGVPSRFSGSGSGTDFTFTISSLQPEDIATYYCLQSDNMLTFGQGTKLEIK", "kon", "1e+08"),
]

Required: kon, one value per binder below.
1. STLM228 (antibody, from another filing, V domains shown) VH: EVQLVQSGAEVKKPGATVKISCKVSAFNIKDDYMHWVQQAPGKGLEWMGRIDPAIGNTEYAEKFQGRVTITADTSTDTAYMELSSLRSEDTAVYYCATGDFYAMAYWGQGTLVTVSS VL: DIQMTQSPSTLSASVGDRVTITCITNTDIDDVIHWYQQKPGKAPKLLIYEGNTLRPGVPSRFSGSGSGTEFTLTISSLQPDDFATYYCLQSDNMLTFGQGTKLEIK
2. STLM215 (antibody, from another filing, V domains shown) VH: EVQLLESGGGLVQPGGSLRLSCAASGFTFSSYDMFWVRQAPGKGLEWVSAIAGEGGRTYYADSVKGRFTISRDNSKNTLYLQMNSLRAEDTAVYYCARDPWSTEGSFFVLDYWGQGTLVTVSS VL: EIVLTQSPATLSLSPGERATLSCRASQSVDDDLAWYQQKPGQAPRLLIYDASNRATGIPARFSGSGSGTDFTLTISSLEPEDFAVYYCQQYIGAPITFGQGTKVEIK
3. STLM221 (antibody, from another filing, V domains shown) VH: EVQLLESGGGLVQPGGSLRLSCAASGFTFSIYDMFWVRQAPGKGLEWVSYIRGEGGDTNYADSVKGRFTISRDNSKNTLYLQMNSLRAEDTAVYYCARDPWSTEGSFFVLDYWGQGTLVTVSS VL: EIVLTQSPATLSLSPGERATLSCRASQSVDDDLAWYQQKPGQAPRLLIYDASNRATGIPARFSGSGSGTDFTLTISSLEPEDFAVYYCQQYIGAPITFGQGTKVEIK

["1e+08", "3.54e+07", "6.04e+06"]

Required: kon, one value per binder below.
1. STLM226 (antibody, from another filing, V domains shown) VH: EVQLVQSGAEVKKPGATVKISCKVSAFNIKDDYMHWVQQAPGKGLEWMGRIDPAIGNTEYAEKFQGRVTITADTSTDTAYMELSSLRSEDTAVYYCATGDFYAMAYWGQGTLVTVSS VL: DIQMTQSPSSLSASVGDRVTITCITNTDIDDVIHWYQQKPGKAPKLLIYEGNTLRPGVPSRFSGSGSGTDFTLTISSLQPEDFATYYCLQSDNLLTFGQGTKLEIK
2. STLM231 (antibody, from another filing, V domains shown) VH: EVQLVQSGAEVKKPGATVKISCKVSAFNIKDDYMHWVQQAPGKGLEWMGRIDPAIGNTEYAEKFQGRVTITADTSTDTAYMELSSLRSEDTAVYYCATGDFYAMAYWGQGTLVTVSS VL: DIQMTQSPSSLSASVGDRVTITCITNTDIDDVIHWYQQKPGKVPKLLIYEGNTLRPGVPSRFSGSGSGTDFTLTISSLQPEDVATYYCLQSDNMLTFGQGTKLEIK

1: 1e+08; 2: 8.27e+07
